target: T1, βTrCP (tag cleaved and complexed with Skp1) (UniProt Q9Y297 175-605; P63208 1-163); assay: FP competition vs fluorescein-IκB peptide
T1 construct: Protein of the FP assay (0.035 µM); also called Beta Transducin repeat-containing protein; βTrCP/Skp1
T1 sequence (Q9Y297 175-605, chain 1 of 2): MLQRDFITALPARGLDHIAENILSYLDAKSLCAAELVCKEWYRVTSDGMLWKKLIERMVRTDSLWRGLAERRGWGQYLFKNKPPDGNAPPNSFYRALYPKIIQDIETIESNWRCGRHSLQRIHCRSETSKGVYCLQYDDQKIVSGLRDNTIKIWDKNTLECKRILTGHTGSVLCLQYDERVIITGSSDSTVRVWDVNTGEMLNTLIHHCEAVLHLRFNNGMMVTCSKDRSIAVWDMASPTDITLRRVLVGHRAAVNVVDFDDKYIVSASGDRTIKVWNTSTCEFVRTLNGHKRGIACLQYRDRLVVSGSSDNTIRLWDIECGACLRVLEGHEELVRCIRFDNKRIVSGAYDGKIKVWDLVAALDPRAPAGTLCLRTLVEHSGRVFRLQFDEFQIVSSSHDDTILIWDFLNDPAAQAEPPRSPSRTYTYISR
T1 sequence (P63208 whole entry, chain 2 of 2): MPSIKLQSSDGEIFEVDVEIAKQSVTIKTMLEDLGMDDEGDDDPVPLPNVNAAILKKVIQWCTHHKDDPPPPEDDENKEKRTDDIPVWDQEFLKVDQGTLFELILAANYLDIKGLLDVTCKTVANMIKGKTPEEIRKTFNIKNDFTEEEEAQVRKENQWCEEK
Starred links: 1 amine or outer side, 2 acyl side, 3 side chain; linkers in the order of their positions; H or OH if unused. Non-standard residues stand in square brackets, D forms with d. *: point of attachment. Benzenesulfonyl(4-OMe) = COc1ccc(S(=O)(=O)*)cc1; 2Naphthylsulfonyl = O=S(=O)(c1ccc2ccccc2c1)*; 3,4‑(MeO)2‑PhSO2 = COc1ccc(S(=O)(=O)*)cc1OC; E(Me) = COC(=O)CC[C@H](N[*:1])C(=O)[*:2]; Phe(3-Cl) = N[C@@H](Cc1cccc(Cl)c1)C(=O)O; Phe(3-F) = N[C@@H](Cc1cccc(F)c1)C(=O)O; Tos = Cc1ccc(S(=O)(=O)*)cc1; Propionyl = CCC(=O)*; Moc = COC(=O)*
READOUT_TYPE: pIC50
Give bare numbers, as −log10 of the molar value.

2Naphthylsulfonyl-[dD]EG[Phe(3-F)]WE-NH2 (SMILES NC(=O)[C@H](CCC(=O)O)NC(=O)[C@H](Cc1c[nH]c2ccccc12)NC(=O)[C@H](Cc1cccc(F)c1)NC(=O)CNC(=O)[C@H](CCC(=O)O)NC(=O)[C@@H](CC(=O)O)NS(=O)(=O)c1ccc2ccccc2c1, also called UBP031) [2-NaphthylSO2-dEGF(3F)WE-NH2]	7.36

Could you tell me pIC50 for each of these binders? They are listed below.
1. {Benzenesulfonyl(4-OMe)}-DEG[Phe(3-F)]WE-NH2 (SMILES COc1ccc(S(=O)(=O)N[C@@H](CC(=O)O)C(=O)N[C@@H](CCC(=O)O)C(=O)NCC(=O)N[C@@H](Cc2cccc(F)c2)C(=O)N[C@@H](Cc2c[nH]c3ccccc23)C(=O)N[C@@H](CCC(=O)O)C(N)=O)cc1, also called UBP026) [4-(MeO)-PhSO2-DEGF(3F)WE-NH2]
2. {3,4‑(MeO)2‑PhSO2}-[dD]EG[Phe(3-F)]WE-NH2 (SMILES COc1ccc(S(=O)(=O)N[C@H](CC(=O)O)C(=O)N[C@@H](CCC(=O)O)C(=O)NCC(=O)N[C@@H](Cc2cccc(F)c2)C(=O)N[C@@H](Cc2c[nH]c3ccccc23)C(=O)N[C@@H](CCC(=O)O)C(N)=O)cc1OC, also called UBP029) [3,4-(MeO)2-PhSO2-dEGF(3F)WE-NH2]
3. Tos-[dD]EG[Phe(3-F)]WE-NH2 (SMILES Cc1ccc(S(=O)(=O)N[C@H](CC(=O)O)C(=O)N[C@@H](CCC(=O)O)C(=O)NCC(=O)N[C@@H](Cc2cccc(F)c2)C(=O)N[C@@H](Cc2c[nH]c3ccccc23)C(=O)N[C@@H](CCC(=O)O)C(N)=O)cc1, also called UBP021) [Ts-dEGF(3F)WE-NH2]
4. Propionyl-[dD]EG[Phe(3-F)]WE-NH2 (also called UBP019) [Et(CO)-dEGF(3F)WE-NH2]
5. Moc-[dD]EG[Phe(3-F)]WE-NH2 (SMILES COC(=O)N[C@H](CC(=O)O)C(=O)N[C@@H](CCC(=O)O)C(=O)NCC(=O)N[C@@H](Cc1cccc(F)c1)C(=O)N[C@@H](Cc1c[nH]c2ccccc12)C(=O)N[C@@H](CCC(=O)O)C(N)=O, also called UBP020) [MeO(CO)-dEGF(3F)WE-NH2]
6. Tos-[dD]EG[Phe(3-Cl)]W[E(Me)]-NH2 (also called UBP033) [Ts-dEGF(3Cl)WE(Me)-NH2]

1. 7.57
2. 7.38
3. 7.54
4. 6.84
5. 7.12
6. 7.77
